- Tested on: SK-BR-3
- method-description: Cytotoxicity against human SKBR3 cells assessed as cell viability at 12.5 uM after 72 hrs by MTS assay
- Format: functional
- settings: SK-BR-3, 72 h, read-out: Activity
property-measured: viability at 12.5 µM (%)
Use % as the unit, but write only the number.

[in] Endpoint output: viability at 12.5 µM of O=S1(=O)COC[C@H](COCc2ccc(-c3ccc(CBr)cc3)cc2)N1 . Value?
[out] 81

[in] Name the reported viability at 12.5 µM value associated with the compound CN1[C@H](COCc2ccccc2)COCS1(=O)=O
[out] 81

[in] Recorded viability at 12.5 µM of O=S1(=O)COC[C@H](COCc2ccccc2)N1Cc1ccccc1 , please.
[out] 80

[in] So what does the record say about viability at 12.5 µM for O=S1(=O)COC[C@@H](COCc2ccccc2)N1Cc1ccccc1 ?
[out] 82

[in] Could you share which viability at 12.5 µM value was measured for CCCCCCCC/C=C\CCCCCCCCOC[C@H]1COCS(=O)(=O)N1Cc1ccccc1 ?
[out] 81
